Recorded pKi by entry
Biological target: 5-hydroxytryptamine receptor 1A (Homo sapiens, UniProt P08908)
Sequence (P08908 whole entry): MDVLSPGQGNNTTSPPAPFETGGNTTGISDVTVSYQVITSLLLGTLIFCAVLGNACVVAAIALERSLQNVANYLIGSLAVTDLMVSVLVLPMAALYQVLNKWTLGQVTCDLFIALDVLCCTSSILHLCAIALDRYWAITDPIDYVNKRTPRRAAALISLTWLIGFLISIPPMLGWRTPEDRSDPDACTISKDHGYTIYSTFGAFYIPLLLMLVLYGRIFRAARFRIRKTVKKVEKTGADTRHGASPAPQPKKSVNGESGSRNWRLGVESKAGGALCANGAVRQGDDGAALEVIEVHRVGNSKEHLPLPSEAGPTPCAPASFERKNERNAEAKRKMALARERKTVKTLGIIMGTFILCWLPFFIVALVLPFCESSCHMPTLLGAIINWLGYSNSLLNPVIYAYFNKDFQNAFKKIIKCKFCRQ
Test: Displacement of [3H]OH-DPAT from human recombinant 5-HT1A receptor measured after 60 mins by scintillation counter method
Recall that pKi is obtained by taking minus log10 of the concentration measured in molar.

CC(C)CCO[C@@H]1[C@H]2OC(C)(C)O[C@H]2[C@H]2COCc3cn(nn3)C[C@H]3O[C@H](CCN(CCc4ccc5ccccc5c4)CC[C@H]1O2)[C@H](OCCC(C)C)[C@H]1OC(C)(C)O[C@H]13    6.38

Then there is this molecule:
stdin: Item CC(C)CCO[C@@H]1[C@H]2OC(C)(C)O[C@H]2[C@H]2Cn3cc(nn3)COCCCCCCN(CCc3ccc4ccccc4c3)CC[C@H]1O2 has what recorded pKi?
stdout: 6.51

----------
Target: Cav1.2 (L-type calcium channel subunit alpha-1C) (Rattus norvegicus)
Sequence (P22002 whole entry): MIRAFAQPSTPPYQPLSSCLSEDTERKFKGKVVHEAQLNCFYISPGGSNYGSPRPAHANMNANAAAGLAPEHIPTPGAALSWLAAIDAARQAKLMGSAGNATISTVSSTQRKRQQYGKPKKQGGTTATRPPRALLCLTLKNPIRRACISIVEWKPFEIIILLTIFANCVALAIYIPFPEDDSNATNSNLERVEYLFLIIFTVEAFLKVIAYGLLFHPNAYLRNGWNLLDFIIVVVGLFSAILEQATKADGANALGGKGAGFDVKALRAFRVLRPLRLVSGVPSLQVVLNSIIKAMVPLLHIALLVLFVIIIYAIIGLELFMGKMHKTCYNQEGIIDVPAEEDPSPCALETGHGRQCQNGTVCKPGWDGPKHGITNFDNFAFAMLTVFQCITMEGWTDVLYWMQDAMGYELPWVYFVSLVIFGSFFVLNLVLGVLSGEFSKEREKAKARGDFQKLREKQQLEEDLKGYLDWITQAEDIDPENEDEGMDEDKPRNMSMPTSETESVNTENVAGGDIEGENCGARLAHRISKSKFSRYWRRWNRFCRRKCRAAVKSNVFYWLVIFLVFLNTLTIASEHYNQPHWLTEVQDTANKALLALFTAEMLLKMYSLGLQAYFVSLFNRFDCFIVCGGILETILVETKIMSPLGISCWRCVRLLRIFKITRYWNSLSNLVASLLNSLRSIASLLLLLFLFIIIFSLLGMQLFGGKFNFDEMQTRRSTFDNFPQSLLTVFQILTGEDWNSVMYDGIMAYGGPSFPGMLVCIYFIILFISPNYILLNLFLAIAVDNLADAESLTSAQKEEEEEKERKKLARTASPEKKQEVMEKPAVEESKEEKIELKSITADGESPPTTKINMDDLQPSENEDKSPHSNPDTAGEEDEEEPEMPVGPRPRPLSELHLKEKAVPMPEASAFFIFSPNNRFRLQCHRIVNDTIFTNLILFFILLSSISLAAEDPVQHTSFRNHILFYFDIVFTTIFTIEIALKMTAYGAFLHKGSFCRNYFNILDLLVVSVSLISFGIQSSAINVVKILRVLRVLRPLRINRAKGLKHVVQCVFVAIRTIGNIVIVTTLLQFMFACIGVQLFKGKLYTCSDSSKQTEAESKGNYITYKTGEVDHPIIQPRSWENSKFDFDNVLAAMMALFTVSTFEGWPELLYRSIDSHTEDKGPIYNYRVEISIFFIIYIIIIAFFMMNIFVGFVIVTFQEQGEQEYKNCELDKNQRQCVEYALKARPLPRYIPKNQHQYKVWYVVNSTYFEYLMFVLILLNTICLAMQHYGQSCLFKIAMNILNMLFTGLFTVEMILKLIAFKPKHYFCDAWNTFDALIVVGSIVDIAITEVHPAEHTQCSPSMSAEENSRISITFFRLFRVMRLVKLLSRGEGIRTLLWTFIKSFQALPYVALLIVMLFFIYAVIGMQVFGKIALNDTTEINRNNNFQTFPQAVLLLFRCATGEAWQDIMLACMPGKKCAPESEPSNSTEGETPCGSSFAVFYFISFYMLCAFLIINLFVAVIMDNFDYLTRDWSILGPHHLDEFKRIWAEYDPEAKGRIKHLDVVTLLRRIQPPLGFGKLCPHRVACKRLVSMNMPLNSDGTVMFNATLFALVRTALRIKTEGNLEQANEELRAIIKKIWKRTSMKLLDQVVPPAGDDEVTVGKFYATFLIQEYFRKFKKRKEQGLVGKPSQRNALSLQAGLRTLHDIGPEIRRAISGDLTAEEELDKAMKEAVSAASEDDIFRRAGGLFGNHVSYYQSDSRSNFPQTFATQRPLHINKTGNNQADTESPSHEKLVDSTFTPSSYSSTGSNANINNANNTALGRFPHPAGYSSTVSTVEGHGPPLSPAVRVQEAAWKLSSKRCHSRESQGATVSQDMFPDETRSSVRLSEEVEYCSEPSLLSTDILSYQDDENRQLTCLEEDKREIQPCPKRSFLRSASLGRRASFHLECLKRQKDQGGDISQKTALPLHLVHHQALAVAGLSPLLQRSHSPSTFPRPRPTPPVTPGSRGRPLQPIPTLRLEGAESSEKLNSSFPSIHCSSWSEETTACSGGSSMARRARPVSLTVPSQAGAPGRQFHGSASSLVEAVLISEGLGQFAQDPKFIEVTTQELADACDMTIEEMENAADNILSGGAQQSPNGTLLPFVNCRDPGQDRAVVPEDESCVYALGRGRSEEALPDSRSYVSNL
Assay: Displacement of [3H] D888 from rat Cav1.2 (L-type) at 10 uM measured after 120 mins by scintillation counter method relative to control
Conditions: probe [3H] D888
Measure: inhibition at 2 h, 10 µM (%)
Answer in %, number only, no unit symbol.

stdin: Item CC(C)CCO[C@@H]1[C@H]2OC(C)(C)O[C@H]2[C@H]2Cn3cc(nn3)COCCCCCCN(CCc3ccc4ccccc4c3)CC[C@H]1O2 has what recorded inhibition at 2 h, 10 µM?
stdout: 90.5

----------
Biological target: Sodium-dependent serotonin transporter (Homo sapiens)
Sequence (P31645 whole entry): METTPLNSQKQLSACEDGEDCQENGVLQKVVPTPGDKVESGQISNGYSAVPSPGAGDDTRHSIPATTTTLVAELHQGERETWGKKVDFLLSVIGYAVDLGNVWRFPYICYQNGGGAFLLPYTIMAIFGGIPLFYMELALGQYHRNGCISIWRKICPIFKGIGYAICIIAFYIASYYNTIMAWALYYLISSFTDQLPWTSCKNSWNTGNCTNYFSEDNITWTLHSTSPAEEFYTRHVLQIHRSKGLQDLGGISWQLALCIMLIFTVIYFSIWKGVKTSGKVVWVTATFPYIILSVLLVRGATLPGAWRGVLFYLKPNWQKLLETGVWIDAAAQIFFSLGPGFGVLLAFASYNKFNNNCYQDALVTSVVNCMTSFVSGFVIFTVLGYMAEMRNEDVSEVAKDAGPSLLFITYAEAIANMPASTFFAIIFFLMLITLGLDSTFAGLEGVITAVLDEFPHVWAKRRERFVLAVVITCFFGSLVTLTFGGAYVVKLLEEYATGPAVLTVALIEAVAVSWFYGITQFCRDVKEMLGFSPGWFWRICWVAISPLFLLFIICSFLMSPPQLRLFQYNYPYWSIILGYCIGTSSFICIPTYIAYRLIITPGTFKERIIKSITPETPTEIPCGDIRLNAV
Experiment: Displacement of [3H] imipramine from human recombinant 5-HT transporter measured after 60 mins by scintillation counter method
Measure: Ki (µM)
Answer in µM, number only, no unit symbol.

stdin: Item CC(C)CCO[C@@H]1[C@H]2OC(C)(C)O[C@H]2[C@H]2Cn3cc(nn3)COCCCCCCN(CCc3ccc4ccccc4c3)CC[C@H]1O2 has what recorded Ki?
stdout: 3.4

----------
Biological target: 5-hydroxytryptamine receptor 2C (Homo sapiens, UniProt P28335)
Sequence (P28335 whole entry): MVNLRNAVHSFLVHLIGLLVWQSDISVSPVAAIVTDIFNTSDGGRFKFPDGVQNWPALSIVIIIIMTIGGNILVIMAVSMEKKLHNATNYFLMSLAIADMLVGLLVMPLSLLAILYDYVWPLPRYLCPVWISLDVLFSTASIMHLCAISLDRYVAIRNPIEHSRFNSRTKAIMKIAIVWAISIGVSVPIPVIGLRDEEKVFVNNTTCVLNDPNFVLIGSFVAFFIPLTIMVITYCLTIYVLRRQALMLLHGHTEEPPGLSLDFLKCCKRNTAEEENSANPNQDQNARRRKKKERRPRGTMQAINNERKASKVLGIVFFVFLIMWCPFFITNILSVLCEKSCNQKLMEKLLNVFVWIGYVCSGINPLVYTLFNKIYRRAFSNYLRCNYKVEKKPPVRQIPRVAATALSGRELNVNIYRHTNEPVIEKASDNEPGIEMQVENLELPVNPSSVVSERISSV
Test: Displacement of [3H] mesulergine from human recombinant 5-HT2C receptor measured after 120 mins by scintillation counter method
Measure: IC50

stdin: Item CC(C)CCO[C@@H]1[C@H]2OC(C)(C)O[C@H]2[C@H]2Cn3cc(nn3)COCCCCCCN(CCc3ccc4ccccc4c3)CC[C@H]1O2 has what recorded IC50?
stdout: > 100 µM

----------
Target: 5-hydroxytryptamine receptor 2A (Homo sapiens, UniProt P28223)
Sequence (P28223 whole entry): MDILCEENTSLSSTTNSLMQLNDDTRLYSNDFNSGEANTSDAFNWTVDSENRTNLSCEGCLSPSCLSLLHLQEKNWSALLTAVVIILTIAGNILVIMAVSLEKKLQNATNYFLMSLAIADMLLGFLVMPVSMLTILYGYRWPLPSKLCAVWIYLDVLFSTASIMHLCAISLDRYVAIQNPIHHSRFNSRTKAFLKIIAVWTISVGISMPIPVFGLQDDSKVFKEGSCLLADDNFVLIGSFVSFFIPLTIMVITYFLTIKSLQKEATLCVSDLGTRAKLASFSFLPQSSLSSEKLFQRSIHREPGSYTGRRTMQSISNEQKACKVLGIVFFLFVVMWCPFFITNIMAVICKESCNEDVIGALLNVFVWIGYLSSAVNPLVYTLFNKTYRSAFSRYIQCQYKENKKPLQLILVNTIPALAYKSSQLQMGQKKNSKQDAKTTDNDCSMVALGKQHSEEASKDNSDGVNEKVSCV
Assay: Displacement of [3H] ketanserin from human recombinant 5-HT2A receptor measured after 60 mins by scintillation counter method
Measure: Ki
Kindly report the value followed by its unit.

CC(C)CCO[C@@H]1[C@H]2OC(C)(C)O[C@H]2[C@H]2Cn3cc(nn3)COCCCCCCN(CCc3ccc4ccccc4c3)CC[C@H]1O2    970 nM

Then there is this compound:
stdin: Item CC(C)CCO[C@@H]1[C@H]2OC(C)(C)O[C@H]2[C@H]2COCc3cn(nn3)C[C@H]3O[C@H](CCN(CCc4ccc5ccccc5c4)CC[C@H]1O2)[C@H](OCCC(C)C)[C@H]1OC(C)(C)O[C@H]13 has what recorded Ki?
stdout: 4700 nM

----------
Target: 5-hydroxytryptamine receptor 2B (Homo sapiens, UniProt P41595)
Sequence (P41595 whole entry): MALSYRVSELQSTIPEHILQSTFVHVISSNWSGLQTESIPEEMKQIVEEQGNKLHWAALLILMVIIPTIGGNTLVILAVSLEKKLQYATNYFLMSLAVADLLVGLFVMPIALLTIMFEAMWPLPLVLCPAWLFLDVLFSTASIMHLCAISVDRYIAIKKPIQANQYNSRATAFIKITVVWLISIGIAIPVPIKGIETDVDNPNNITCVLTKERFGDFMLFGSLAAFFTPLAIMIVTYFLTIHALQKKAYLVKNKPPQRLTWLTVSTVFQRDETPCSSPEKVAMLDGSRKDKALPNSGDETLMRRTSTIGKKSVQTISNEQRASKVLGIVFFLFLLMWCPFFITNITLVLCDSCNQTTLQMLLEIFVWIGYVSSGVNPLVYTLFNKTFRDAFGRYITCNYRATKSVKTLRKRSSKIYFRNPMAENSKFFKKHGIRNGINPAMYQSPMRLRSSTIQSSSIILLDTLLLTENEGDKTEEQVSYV
Test: Antagonist activity at human recombinant 5-HT2B receptor in CHOK1 cells measured after 30 mins by HTRF assay
Measure: Ki

CC(C)CCO[C@@H]1[C@H]2OC(C)(C)O[C@H]2[C@H]2Cn3cc(nn3)COCCCCCCN(CCc3ccc4ccccc4c3)CC[C@H]1O2    0.87 µM
CN1C[C@@H](NS(=O)(=O)N(C)C)C[C@@H]2c3cccc4c3c(cn4C)C[C@H]21 [MESULERGINE]    0.0028 µM

Then there is this compound:
stdin: Request - read-out Ki | tested on 5-hydroxytryptamine receptor 2B (Homo sapiens, UniProt P41595) | compound CC(C)CCO[C@@H]1[C@H]2OC(C)(C)O[C@H]2[C@H]2COCc3cn(nn3)C[C@H]3O[C@H](CCN(CCc4ccc5ccccc5c4)CC[C@H]1O2)[C@H](OCCC(C)C)[C@H]1OC(C)(C)O[C@H]13
stdout: 8.2 µM
